protocol-summary: Assessment of solubility (McIlvaine buffers, 24 h shake, UPLC-UV)
Format: physicochemical
setup-conditions: pH 6.8, aqueous buffer, kinetic from dmso stock

| molecule | solubility at 24 h [µg/mL] |
| --- | --- |
| COc1c(C(=O)O)cnn1-c1cccc(-c2cccc(C)c2OCc2ccc3c(c2)CCN(C2CCC(F)(F)CC2)C3)n1 | 72 |
| COc1c(C(=O)O)cnn1-c1cccc(-c2cccc(C)c2OCc2ccc3c(c2C)CCN(C2CCOC2)C3)n1 (stereo not shown) | 94 |
| CCOc1c(C(=O)O)cnn1-c1cccc(-c2cccc(Cl)c2OCc2ccc3c(c2)CCN(C2COC2)C3)n1 | 93 |
| CCOc1c(C(=O)O)cnn1-c1cccc(-c2cccc(C)c2OCc2ccc3c(c2C)CCN(C[C@@H]2CCCOC2)C3)n1 | 74 |
| CCOc1c(C(=O)O)cnn1-c1cccc(-c2cccc(C)c2OCc2ccc3c(c2)CCN([C@H]2CCOC2)C3)n1 | 120 |
| COc1c(C(=O)O)cnn1-c1cccc(-c2cccc(C)c2OCc2ccc3c(c2)C(C)(C)CN(C2COC2)C3)n1 | 73 |
| COc1c(C(=O)O)cnn1-c1cccc(-c2cccc(C)c2OCc2cc(C)c3c(c2)CCN(CC2(C)COC2)C3)n1 | 72 |

* * *

protocol-summary: Assessment of solubility (McIlvaine buffers, 24 h shake, UPLC-UV)
Assay type: physicochemical
setup-conditions: pH 2.2, aqueous buffer, kinetic from dmso stock
experimental-readout: log10 solubility at 24 h (log10 of the value in µg/mL)

| compound | experimental-readout | assay-result |
| --- | --- | --- |
| COc1c(C(=O)O)cnn1-c1cccc(-c2ccc(C)cc2OCc2ccc3c(c2C)CCN(C2CCOCC2)C3)n1 | log10 solubility at 24 h | 2.18 |
| CCOc1c(C(=O)O)cnn1-c1cccc(-c2cccc(C)c2OCc2ccc3c(c2C)CCN(C[C@H]2COC(C)(C)O2)C3)n1 | log10 solubility at 24 h | 1.63 |
| COc1c(C(=O)O)cnn1-c1cccc(-c2cccc(C)c2OCc2ccc3c(c2)C(C)(C)CN(C2CCOCC2)C3)n1 | log10 solubility at 24 h | 2.11 |
| COc1c(C(=O)O)cnn1-c1cccc(-c2cccc(C)c2OCc2cc3c(c(C(F)(F)F)c2)CN(C2CCOCC2)CC3)n1 | log10 solubility at 24 h | 1.81 |
| COc1c(C(=O)O)cnn1-c1cccc(-c2cccc(C)c2OCc2ccc3c(c2)CCN(CC2CC2(F)F)C3)n1 (stereo not drawn) | log10 solubility at 24 h | 1.64 |
| COc1c(C(=O)O)cnn1-c1cccc(-c2cccc(C)c2OCc2ccc3c(c2C)CCN(C2COC2)CC3)n1 | log10 solubility at 24 h | 2.00 |
| CCOc1c(C(=O)O)cnn1-c1cccc(-c2cccc(C)c2OCc2ccc3c(c2C)CCN(C[C@H]2COCCO2)CC3)n1 | log10 solubility at 24 h | 1.96 |
| COc1c(C(=O)O)cnn1-c1cccc(-c2cccc(C)c2OCc2ccc3c(c2Cl)CCN(CC2(C)COC2)C3)n1 | log10 solubility at 24 h | 1.98 |
| CCOc1c(C(=O)O)cnn1-c1cccc(-c2cccc(C)c2OCc2ccc3c(c2C)CCN(C(=O)C2CCOCC2)C3)n1 | log10 solubility at 24 h | 0.08 |
| Cc1cccc(-c2cccc(-n3ncc(C(=O)O)c3OC(C)C)n2)c1OCc1ccc2c(c1)CCN(CC1(C)COC1)C2 | log10 solubility at 24 h | 2.00 |
| COc1c(C(=O)O)cnn1-c1cccc(-c2cccc(C)c2OCc2cc(C#N)c3c(c2)CCN(C2CCOCC2)C3)n1 | log10 solubility at 24 h | 2.04 |
| COc1c(C(=O)O)cnn1-c1cccc(-c2cccc(C)c2OCc2ccc3c(c2Cl)CCN(CC(C)(C)C)C3)n1 | log10 solubility at 24 h | 1.98 |
| CCOc1c(C(=O)O)cnn1-c1cccc(-c2cccc(C)c2OCc2ccc3c(c2C)CCN(C[C@@H]2CCOC2)C3)n1 | log10 solubility at 24 h | 1.95 |
| COc1c(C(=O)O)cnn1-c1cccc(-c2cccc(C)c2OCc2ccc3c(c2)CCN([C@H]2CC[C@H](OC)CC2)C3)n1 | log10 solubility at 24 h | 2.00 |
| CCOc1c(C(=O)O)cnn1-c1cccc(-c2cccc(C)c2OCc2ccc3c(c2)CCNC3)n1 | log10 solubility at 24 h | 2.07 |
| COc1c(C(=O)O)cnn1-c1cccc(-c2cccc(C)c2OCc2ccc3c(c2)CCN(C2CCOC(C)(C)C2)C3)n1 (stereo not drawn) | log10 solubility at 24 h | 2.11 |
| CCOc1c(C(=O)O)cnn1-c1cccc(-c2cccc(C)c2OCc2cc(C)c3c(c2)CCN(C2CCOC2)C3)n1 (stereo not drawn) | log10 solubility at 24 h | 2.00 |
| COc1c(C(=O)O)cnn1-c1cccc(-c2cccc(C)c2OCc2ccc3c(c2C)CCN(CC2CC(F)(F)C2)C3)n1 | log10 solubility at 24 h | 2.04 |
| CC[C@H](C)Oc1c(C(=O)O)cnn1-c1cccc(-c2cccc(C)c2OCc2ccc3c(c2C)CCN(C2CCCOC2)C3)n1 (stereo partly drawn) | log10 solubility at 24 h | 2.04 |
| COc1c(C(=O)O)cnn1-c1cccc(-c2cc(F)cc(F)c2OCc2ccc3c(c2)CCN(C2CCOCC2)C3)n1 | log10 solubility at 24 h | 1.92 |
| COCC(C)N1CCc2cc(COc3c(C)cccc3-c3cccc(-n4ncc(C(=O)O)c4OC)n3)cc(C)c2C1 (stereo not drawn) | log10 solubility at 24 h | 2.08 |
| COc1c(C(=O)O)cnn1-c1cccc(-c2cccc(C)c2OCc2ccc3c(c2C)CCN([C@@H]2CCCOC2)C3)n1 | log10 solubility at 24 h | 2.15 |
| CCOc1c(C(=O)O)cnn1-c1cccc(-c2cccc(C)c2OCc2ccc3c(c2)CCN(C2CCOC(CC)C2)C3)n1 (stereo not drawn) | log10 solubility at 24 h | 2.00 |
| COc1c(C(=O)O)cnn1-c1cccc(-c2cccc(C)c2OCc2cc3c(cc2C)CN(C2CCOCC2)CC3)n1 | log10 solubility at 24 h | 2.04 |
| CCOc1c(C(=O)O)cnn1-c1cccc(-c2cccc(Cl)c2OCc2ccc3c(c2)CCN(C2CCOC2)C3)n1 (stereo not drawn) | log10 solubility at 24 h | 1.99 |
| COc1c(C(=O)O)cnn1-c1cccc(-c2cccc(C)c2OCc2ccc3c(c2)CCN(C2C4CCOC4C2(C)C)C3)n1 (stereo not drawn) | log10 solubility at 24 h | 2.08 |
| COc1c(C(=O)O)cnn1-c1cccc(-c2cccc(C)c2OCc2cc(C)c3c(c2)CCN(C2CCCOC2)C3)n1 (stereo not drawn) | log10 solubility at 24 h | 1.97 |
